Assignment: determine reported MIC for the given compounds.
System: up to 32 different microorganisms
Assay: in vitro antibacterial activity (MIC), agar dilution on Brain Heart Infusion (BHI) agar with Steers replicator
Format: cell-based
Details: Streptococcus Pneumonia 5649 (code ZZA); unit assumed
Your answer should be a number followed by the unit of measure.

What value of measured MIC is listed for CC[C@H]1OC(=O)[C@H](C)C(=O)[C@H](C)[C@@H](O[C@@H]2O[C@H](C)C[C@H](N(C)C)[C@H]2O)[C@@](C)(OCC=Cc2ccc(Cl)cc2)C[C@@H](C)C(=O)[C@H](C)[C@@H](O)[C@]1(C)O ?
2 µg/mL

What value of measured MIC is listed for C=CCO[C@@]1(C)C[C@@H](C)C(=O)[C@H](C)[C@H]2OC(=O)O[C@]2(C)[C@@H](CC)OC(=O)[C@H](C)C(=O)[C@H](C)[C@H]1O[C@@H]1O[C@H](C)C[C@H](N(C)C)[C@H]1O ?
1 µg/mL

What value of measured MIC is listed for C=CCO[C@@]1(C)C[C@@H](C)C(=O)[C@H](C)[C@H]2NC(=O)O[C@]2(C)[C@@H](CC)OC(=O)[C@H](C)C(=O)[C@H](C)[C@H]1O[C@@H]1O[C@H](C)C[C@H](N(C)C)[C@H]1O ?
0.25 µg/mL

What value of measured MIC is listed for CCC1OC(=O)C(C)C(=O)C(C)C(OC2OC(C)CC(N(C)C)C2O)C(C)(OCC=Cc2ccc3c(c2)OCCO3)CC(C)C(=O)C(C)C2NC(=O)OC12C (stereo not drawn) ?
0.25 µg/mL

What value of measured MIC is listed for CCC1OC(=O)C(C)C(=O)C(C)C(OC2OC(C)CC(N(C)C)C2O)C(C)(OCC=Cc2cnc3ccc(Cl)cc3c2)CC(C)C(=O)C(C)C2NC(=O)OC12C (stereo not drawn) ?
0.25 µg/mL

What value of measured MIC is listed for CC[C@H]1OC(=O)[C@H](C)C(=O)[C@H](C)[C@@H](O[C@@H]2O[C@H](C)C[C@H](N(C)C)[C@H]2O)[C@@](C)(OCC=Cc2ccccc2)C[C@@H](C)C(=O)[C@H](C)[C@H]2NC(=O)O[C@@]21C ?
0.25 µg/mL

----------
System: up to 32 different microorganisms
Experiment: in vitro antibacterial activity (MIC), agar dilution on Brain Heart Infusion (BHI) agar with Steers replicator
Type: cell-based
Conditions: Streptococcus Pneumonia ATCC6303 (code XX); unit assumed
Parameter measured: MIC (µg/mL)
# output: bare number, implied unit µg/mL

Enter reported MIC observed with up to 32 different microorganisms for CC[C@H]1OC(=O)[C@H](C)C(=O)[C@H](C)[C@@H](O[C@@H]2O[C@H](C)C[C@H](N(C)C)[C@H]2O)[C@@](C)(OCC=Cc2ccc(OC)cc2)C[C@@H](C)C(=O)[C@H](C)[C@@H](O)[C@]1(C)O
1

Enter reported MIC observed with up to 32 different microorganisms for CC[C@H]1OC(=O)[C@H](C)C(=O)[C@H](C)[C@@H](O[C@@H]2O[C@H](C)C[C@H](N(C)C)[C@H]2O)[C@@](C)(OCCNCCc2ccccc2)C[C@@H](C)C(=O)[C@H](C)[C@@H](O)[C@]1(C)O
2

----------
Tested on: up to 32 different microorganisms
Assay: in vitro antibacterial activity (MIC), agar dilution on Brain Heart Infusion (BHI) agar with Steers replicator
Assay type: cell-based
Conditions: Staphylococcus aureus ATCC 6538P (code AA); unit assumed
Experimental: Representative compounds of the present invention were assayed in vitro for antibacterial activity as follows: Twelve petri dishes containing successive aqueous dilutions of the test compound mixed with 10 mL of sterilized Brain Heart Infusion (BHI) agar (Difco 0148-01-5) were prepared. Each plate was inoculated with 1:100 (or 1:10 for slow-growing strains, such as Micrococcus and Streptococcus) dilutions of up to 32 different microorganisms, using a Steers replicator block. […]
Parameter measured: MIC (µg/mL)
# output: bare number, implied unit µg/mL

What value of measured MIC is listed for CCC1OC(=O)C(C)C(=O)C(C)C(OC2OC(C)CC(N(C)C)C2O)C(C)(OCC=Cc2ccc3c(c2)OCO3)CC(C)C(=O)C(C)C2NC(=O)OC12C (centres unmarked) ?
0.1

What value of measured MIC is listed for CCC1OC(=O)C(C)C(=O)C(C)C(OC2OC(C)CC(N(C)C)C2O)C(C)(OCC=Cc2ccc3ccccc3c2)CC(C)C(=O)C(C)C2NC(=O)OC12C (centres unmarked) ?
0.1

What value of measured MIC is listed for CC[C@H]1OC(=O)[C@H](C)C(=O)[C@H](C)[C@@H](O[C@@H]2O[C@H](C)C[C@H](N(C)C)[C@H]2O)[C@@](C)(OCC=Cc2cnc3ccccc3c2)C[C@@H](C)C(=O)[C@H](C)[C@@H](O)[C@]1(C)O ?
0.2

What value of measured MIC is listed for CC[C@H]1OC(=O)[C@H](C)C(=O)[C@H](C)[C@@H](O[C@@H]2O[C@H](C)C[C@H](N(C)C)[C@H]2O)[C@@](C)(OCCNCc2ccccc2)C[C@@H](C)C(=O)[C@H](C)[C@@H](O)[C@]1(C)O ?
3.1

What value of measured MIC is listed for CCC1OC(=O)C(C)C(=O)C(C)C(OC2OC(C)CC(N(C)C)C2O)C(C)(OCC=Cc2ccc3c(c2)OCCO3)CC(C)C(=O)C(C)C2NC(=O)OC12C (centres unmarked) ?
0.1

----------
Test system: up to 32 different microorganisms
Test: in vitro antibacterial activity (MIC), agar dilution on Brain Heart Infusion (BHI) agar with Steers replicator
Type: cell-based
Conditions: Enterococcus faecism ATCC 8043 (code II); unit assumed
Assignment: determine reported log10 MIC for the given compounds.
Remember, log10 of MIC, in µg/mL.

What value of measured log10 MIC is listed for CCC1OC(=O)C(C)C(=O)C(C)C(OC2OC(C)CC(N(C)C)C2O)C(C)(OCC=Cc2cccnc2)CC(C)C(=O)C(C)C2NC(=O)OC12C (stereo not drawn) ?
-1.30

What value of measured log10 MIC is listed for CC[C@H]1OC(=O)[C@H](C)C(=O)[C@H](C)[C@@H](O[C@@H]2O[C@H](C)C[C@H](N(C)C)[C@H]2O)[C@@](C)(OCC#N)C[C@@H](C)C(=O)[C@H](C)[C@@H](O)[C@]1(C)O ?
0.19

What value of measured log10 MIC is listed for CC[C@H]1OC(=O)[C@H](C)C(=O)[C@H](C)[C@@H](O[C@@H]2O[C@H](C)C[C@H](N(C)C)[C@H]2O)[C@@](C)(OCCNCc2ccccc2)C[C@@H](C)C(=O)[C@H](C)[C@@H](O)[C@]1(C)O ?
-0.11

What value of measured log10 MIC is listed for CCC1OC(=O)C(C)C(=O)C(C)C(OC2OC(C)CC(N(C)C)C2O)C(C)(OCC=Cc2ccc3c(c2)OCCO3)CC(C)C(=O)C(C)C2NC(=O)OC12C (stereo not drawn) ?
-1.70

What value of measured log10 MIC is listed for CC[C@H]1OC(=O)[C@H](C)C(=O)[C@H](C)[C@@H](O[C@@H]2O[C@H](C)C[C@H](N(C)C)[C@H]2O)[C@@](C)(OCc2ccc3ccccc3c2)C[C@@H](C)C(=O)[C@H](C)[C@@H](O)[C@]1(C)O ?
0.19

What value of measured log10 MIC is listed for C=CCO[C@@]1(C)C[C@@H](C)C(=O)[C@H](C)[C@H]2NC(=O)O[C@]2(C)[C@@H](CC)OC(=O)[C@H](C)C(=O)[C@H](C)[C@H]1O[C@@H]1O[C@H](C)C[C@H](N(C)C)[C@H]1O ?
-0.11

What value of measured log10 MIC is listed for CCC1OC(=O)C(C)C(=O)C(C)C(OC2OC(C)CC(N(C)C)C2O)C(C)(OCC=Cc2cccc([N+](=O)[O-])c2)CC(C)C(=O)C(C)C2NC(=O)OC12C (stereo not drawn) ?
-1.70

What value of measured log10 MIC is listed for CCC1OC(=O)C(C)C(=O)C(C)C(OC2OC(C)CC(N(C)C)C2O)C(C)(OCC=Cc2ccc3ccccc3c2)CC(C)C(=O)C(C)C2NC(=O)OC12C (stereo not drawn) ?
-1.30

What value of measured log10 MIC is listed for CCC1OC(=O)C(C)C(=O)C(C)C(OC2OC(C)CC(N(C)C)C2O)C(C)(OCC=Cc2cnc3ccccc3c2)CC(C)C(=O)C(C)C2N(CCN(C)C)C(=O)OC12C (stereo not drawn) ?
-1.00

----------
Tested on: up to 32 different microorganisms
Test: in vitro antibacterial activity (MIC), agar dilution on Brain Heart Infusion (BHI) agar with Steers replicator
Format: cell-based
Settings: organism code II; unit assumed
Assignment: determine reported MIC for the given compounds.
# output: bare number, implied unit µg/mL

Enter reported MIC observed with up to 32 different microorganisms for CCC1OC(=O)C(C)C(=O)C(C)C(OC2OC(C)CC(N(C)C)C2O)C(C)(OCC=Cc2ccc3ccccc3n2)CC(C)C(=O)C(C)C2NC(=O)OC12C (centres unmarked)
0.1

Enter reported MIC observed with up to 32 different microorganisms for C=CCO[C@@]1(C)C[C@@H](C)C(=O)[C@H](C)[C@H]2N(N)C(=O)O[C@]2(C)[C@@H](CC)OC(=O)[C@H](C)C(=O)[C@H](C)[C@H]1O[C@@H]1O[C@H](C)C[C@H](N(C)C)[C@H]1O
0.39

Enter reported MIC observed with up to 32 different microorganisms for CC[C@H]1OC(=O)[C@H](C)C(=O)[C@H](C)[C@@H](O[C@@H]2O[C@H](C)C[C@H](N(C)C)[C@H]2O)[C@@](C)(OCC#Cc2ccccc2)C[C@@H](C)C(=O)[C@H](C)[C@H]2NC(=O)O[C@@]21C
0.05

Enter reported MIC observed with up to 32 different microorganisms for CCC1OC(=O)C(C)C(=O)C(C)C(OC2OC(C)CC(N(C)C)C2O)C(C)(OCC=Cc2ccc3cc(OCCBr)ccc3c2)CC(C)C(=O)C(C)C2NC(=O)OC12C (centres unmarked)
0.39

Enter reported MIC observed with up to 32 different microorganisms for CCC1OC(=O)C(C)C(=O)C(C)C(OC2OC(C)CC(N(C)C)C2O)C(C)(OCC=Cc2cccc(-c3ccccc3)c2)CC(C)C(=O)C(C)C2NC(=O)OC12C (centres unmarked)
0.2

Where do these numbers come from? They come from patent USRE39591E1.
